test system: Candida albicans; assay: Synergistic antifungal activity against fluconazole-resistant Candida albicans 901 assessed as inhibition of fungal growth in presence of fluconazole by checker board microdilution assay; format: functional
RECORDED METRIC: log10(MIC80) (log10 of the value in µg/mL)

> print(dat)
                              sample.smiles  target.or.test.system  quantitative.result
1  CNC(=O)c1noc(-c2cc(-c3ccc(C)cc3)c(O)cc2O)c1-c1ccc(CN2CCOCC2)cc1       Candida albicans                -0.30
2  Cc1ccc(-c2cc(-c3onc(C(=O)NC4CC4)c3-c3ccc(CN4CCOCC4)cc3)c(O)cc2O)cc1       Candida albicans                 0.90
3  Cc1ccc(-c2cc(-c3onc(C(=O)N(C)C)c3-c3ccc(CN4CCCCC4)cc3)c(O)cc2O)cc1       Candida albicans                 1.20
4  CCNC(=O)c1noc(-c2cc(-c3ccc(C)cc3)c(O)cc2O)c1-c1ccc(CN2CCOCC2)cc1       Candida albicans                -0.90
5  CCNC(=O)c1noc(-c2cc(-c3cccc(C(C)C)c3)c(O)cc2O)c1-c1ccc(CN2CCOCC2)cc1       Candida albicans                -0.60
6  CCNC(=O)c1noc(-c2cc(-c3ccc(C)cc3)c(O)cc2O)c1-c1ccc(CN2CCC(N(C)C)CC2)cc1       Candida albicans                 1.20
7  CCNC(=O)c1noc(-c2cc(-c3ccc(F)cc3)c(O)cc2O)c1-c1ccc(CN2CCOCC2)cc1       Candida albicans                 0.30
8  CNC(=O)c1noc(-c2cc(-c3ccc(C)cc3)c(O)cc2O)c1-c1ccc(CN2CCCCC2)cc1       Candida albicans                -0.60
